Target: T1, BMP5 (Homo sapiens (Human),Homo sapiens …, UniProt P22003,P22003)
T1 chain 1: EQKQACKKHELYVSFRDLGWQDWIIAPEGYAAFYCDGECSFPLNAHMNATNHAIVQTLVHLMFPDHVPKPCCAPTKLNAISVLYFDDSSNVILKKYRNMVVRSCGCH
T1 chain 2: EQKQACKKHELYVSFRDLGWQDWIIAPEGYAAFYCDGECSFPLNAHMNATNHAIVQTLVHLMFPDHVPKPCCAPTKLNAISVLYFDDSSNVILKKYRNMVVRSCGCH
Experiment: SPR kinetic 1:1, BMP immobilised, full soluble RGM analyte
Catalogue of Kd values
attribute measured: Kd (nM)

binder: RGMB (protein) QCRIQKCTTDFVSLTSHLNSAVDGFDSEFCKALRAYAGCTQRTSKACRGNLVYHSAVLGISDLMSQRNCSKDGPTSSTNP
attribute measured: Kd
value: 33
//
binder: RGMC (protein) QCKILRCNAEYVSSTLSLRGGGSSGALRGGGGGGRGGGVGSGGLCRALRSYALCTRRTARTCRGDLAFHSAVHGIEDLMIQHNCSRQGPTAPPPP
attribute measured: Kd
value: 17
